Each item that follows carries a reported NEUTROPHIL.
Species on record: Rattus norvegicus
Assay: DrugMatrix - Regimen: Daily Repeat
Type: toxicity, organism-based, Sprague-Dawley
Parameters: regimen Daily Repeat, gender Male, age 6-8 weeks
Details: in vivo, po, 0 mg/kg, 72 h, tissue Blood, route oral GAVAGE, dose level Control, time 3 day, vehicle 100 % WATER
Number in %, nothing else.

[[record]]
compound = "CNCCC=C1c2ccccc2CCc2ccccc21"
assay_result = 8.5

[[record]]
compound = "Clc1ccc(C(c2ccccc2Cl)C(Cl)Cl)cc1 (stereo not drawn)"
assay_result = 6.5


// below: NEUTROPHIL requested for another compound
Value of measured NEUTROPHIL for the entry `CC(C)(S)[C@@H](N)C(=O)O` : 7.17

====

Below: a set of entries, each annotated with reported ABSOLUTE LYMPHOCYTE.
Species: Rattus norvegicus
Experiment: DrugMatrix - Regimen: Daily Repeat
Type: toxicity, organism-based, Sprague-Dawley
Set-up: regimen Daily Repeat, gender Male, age 6-8 weeks
Conditions: in vivo, po, 0 mg/kg, 120 h, tissue Blood, route oral GAVAGE, dose level Control, time 5 day, vehicle .5 % CMC
Write the value in CELLS/uL as a bare number.

[[record]]
compound = "CCOC(=O)OC(C)OC1=C(C(=O)Nc2ccccn2)N(C)S(=O)(=O)c2ccccc21 (stereo not drawn)"
reported_metric = "ABSOLUTE LYMPHOCYTE"
assay_result = 10076.67


Query `CN1CCC[C@@H]1CCO[C@](C)(c1ccccc1)c1ccc(Cl)cc1` yields ABSOLUTE LYMPHOCYTE of 13283.17

====

Organism: Rattus norvegicus
Assay: DrugMatrix - Regimen: Daily Repeat
Type: toxicity, organism-based, Sprague-Dawley
Set-up: regimen Daily Repeat, gender Male, age 6-8 weeks
Details: in vivo, po, 0 mg/kg, 120 h, tissue Blood, route oral GAVAGE, dose level Control, time 5 day, vehicle 100 % WATER
Reported metric: NUCLEATED RED BLOOD CELLS

[[record]]
compound = "COc1cccc(C2(O)CCCCC2CN(C)C)c1 (stereo not given) [TRAMADOL]"
reported_metric = "NUCLEATED RED BLOOD CELLS"
assay_result = "0 /100WBC"

[[record]]
compound = "CC(CCc1ccccc1)NCC(O)c1ccc(O)c(C(N)=O)c1 (stereo not given) [LABETALOL]"
reported_metric = "NUCLEATED RED BLOOD CELLS"
assay_result = "0.17 /100WBC"

[[record]]
compound = "COc1ccc(C(CN(C)C)C2(O)CCCCC2)cc1 (stereo not given) [VENLAFAXINE]"
reported_metric = "NUCLEATED RED BLOOD CELLS"
assay_result = "0 /100WBC"

[[record]]
compound = "CN1CCC[C@H]1c1cccnc1 [NICOTINE]"
reported_metric = "NUCLEATED RED BLOOD CELLS"
assay_result = "0.17 /100WBC"


Then this compound:
Input C[C@]12Cc3c[nH]nc3C[C@@H]1CC[C@@H]1[C@@H]2CC[C@@]2(C)[C@H]1CC[C@]2(C)O [STANOZOLOL] . Output NUCLEATED RED BLOOD CELLS: 0 /100WBC

====

Species: Rattus norvegicus
Test: DrugMatrix - Regimen: Daily Repeat
Type: toxicity, organism-based, Sprague-Dawley
Parameters: regimen Daily Repeat, gender Male, age 6-8 weeks
Conditions: in vivo, po, 0 mg/kg, 120 h, tissue Plasma, route oral GAVAGE, dose level Control, time 5 day, vehicle .5 % CMC
Reported metric: TOTAL PROTEIN
Just so you know, I need the unit written after the number.

Guide cases for TOTAL PROTEIN, answers given:
[[record]]
molecule = "COc1c(C)c2c(c(O)c1C/C=C(\\C)CCC(=O)OCCN1CCOCC1)C(=O)OC2 [MYCOPHENOLATE MOFETIL]"
reported_metric = "TOTAL PROTEIN"
assay_result = "6.02 G/DL"

[[record]]
molecule = "CC[C@H]1OC(=O)[C@H](C)[C@@H](O[C@H]2C[C@@](C)(OC)[C@@H](O)[C@H](C)O2)[C@H](C)[C@@H](O[C@@H]2O[C@H](C)C[C@H](N(C)C)[C@H]2O)[C@](C)(O)C[C@@H](C)/C(=N\\OCOCCOC)[C@H](C)[C@@H](O)[C@]1(C)O [ROXITHROMYCIN]"
reported_metric = "TOTAL PROTEIN"
assay_result = "6.77 G/DL"

[[record]]
molecule = "COC(=O)c1ccc(O)cc1 [METHYLPARABEN]"
reported_metric = "TOTAL PROTEIN"
assay_result = "6.03 G/DL"

[[record]]
molecule = "CCOC(=O)OC(C)OC1=C(C(=O)Nc2ccccn2)N(C)S(=O)(=O)c2ccccc21 (stereo not drawn) [AMPIROXICAM]"
reported_metric = "TOTAL PROTEIN"
assay_result = "6.07 G/DL"

[[record]]
molecule = "CCc1cccc2c3c([nH]c12)C(CC)(CC(=O)O)OCC3 (stereo not drawn) [ETODOLAC]"
reported_metric = "TOTAL PROTEIN"
assay_result = "6.77 G/DL"


Entry under test: CN1CCC[C@@H]1CCO[C@](C)(c1ccccc1)c1ccc(Cl)cc1 [CLEMASTINE] . Its TOTAL PROTEIN was 6.02 G/DL

TOTAL PROTEIN measured on Cc1c(-c2ccccc2)oc2c(C(=O)OCCN3CCCCC3)cccc2c1=O [FLAVOXATE] = 6.02 G/DL

Given item CC(C)[C@H](N)C(=O)OCCOCn1cnc2c(=O)[nH]c(N)nc21 [VALACYCLOVIR] , the value recorded as its TOTAL PROTEIN is 6.08 G/DL

TOTAL PROTEIN reading for O=C1CCc2cc(OCCCCc3nnnn3C3CCCCC3)ccc2N1 [CILOSTAZOL] : 6.72 G/DL

Recorded result, CN1C(C(=O)Nc2ccccn2)=C(O)c2ccccc2S1(=O)=O [PIROXICAM] , TOTAL PROTEIN: 5.93 G/DL

// sample O=c1cc(-c2ccccc2)oc2c1ccc1ccccc12 [ALPHA-NAPHTHOFLAVONE] , its TOTAL PROTEIN was 6.06 G/DL

Record summary for NCC(=O)O [GLYCINE] : reported TOTAL PROTEIN = 6.32 G/DL

====

This section presents compounds with their documented CREATININE values.
Species: Rattus norvegicus
Assay: DrugMatrix - Regimen: Daily Repeat
Type: toxicity, organism-based, Sprague-Dawley
Parameters: regimen Daily Repeat, gender Male, age 6-8 weeks
Details: in vivo, po, 0 mg/kg, 120 h, tissue Plasma, route oral GAVAGE, dose level Control, time 5 day, vehicle 100 % WATER
API: value field is a number in mg/dL; no unit string.

[[record]]
compound = "CNCCC=C1c2ccccc2CCc2ccccc21"
reported_metric = "CREATININE"
assay_result = 0.18

[[record]]
compound = "COc1cc2c(N3CCN(C(=O)Nc4ccc(OC(C)C)cc4)CC3)ncnc2cc1OCCCN1CCCCC1"
reported_metric = "CREATININE"
assay_result = 0.72

[[record]]
compound = "COc1cccc(C2(O)CCCCC2CN(C)C)c1 (configuration not stated)"
reported_metric = "CREATININE"
assay_result = 0.17


What the record says about CN1CCN(C(=O)OC2c3nccnc3C(=O)N2c2ccc(Cl)cn2)CC1 (configuration not stated) : CREATININE is 0.17

Value of measured CREATININE for the entry CC(CCc1ccccc1)NCC(O)c1ccc(O)c(C(N)=O)c1 (configuration not stated) : 0.21

Entry `Fc1ccc([C@@H]2CCNC[C@H]2COc2ccc3c(c2)OCO3)cc1` — recorded CREATININE = 0.17

CREATININE measured on `C[C@]12Cc3c[nH]nc3C[C@@H]1CC[C@@H]1[C@@H]2CC[C@@]2(C)[C@H]1CC[C@]2(C)O` = 0.17

Lab note: `O=C1NC(=O)C(c2ccccc2)(c2ccccc2)N1` gave CREATININE of 0.18

Sample `Cn1cnc([N+](=O)[O-])c1Sc1ncnc2nc[nH]c12` ; CREATININE observed: 0.27

Lab book: CREATININE of `CC(C)(S)[C@@H](N)C(=O)O` noted as 0.13

response.value for `NC(=O)c1ncn([C@@H]2O[C@H](CO)[C@@H](O)[C@H]2O)n1` (field: CREATININE) = 0.16

Entry `NCC1(CC(=O)O)CCCCC1` , CREATININE reported as 0.16

====

Catalogue of molecules with associated EOSINOPHIL
Species: Rattus norvegicus
Experiment: DrugMatrix - Regimen: Daily Repeat
Assay type: toxicity, organism-based, Sprague-Dawley
Design: regimen Daily Repeat, gender Male, age 6-8 weeks
Conditions: in vivo, po, 0 mg/kg, 72 h, tissue Blood, route oral GAVAGE, dose level Control, time 3 day, […]
Answer in %, number only, no unit symbol.

[[record]]
molecule = "CC(=O)[C@H]1CC[C@H]2[C@@H]3CCC4=CC(=O)CC[C@]4(C)[C@H]3CC[C@]12C [PROGESTERONE]"
assay_result = 0.33

[[record]]
molecule = "CCCCCCCCCc1ccc(O)cc1 [4-NONYLPHENOL]"
assay_result = 0

[[record]]
molecule = "Oc1c(Cl)cc(Cl)cc1Sc1cc(Cl)cc(Cl)c1O [BITHIONOL]"
assay_result = 0.17


Given item CC(C)n1c(/C=C/C(O)CC(O)CC(=O)O)c(-c2ccc(F)cc2)c2ccccc21 (stereo not given) [FLUVASTATIN] , the value recorded as its EOSINOPHIL is 0.17

The reported EOSINOPHIL of the molecule Cn1cnc([N+](=O)[O-])c1Sc1ncnc2nc[nH]c12 [AZATHIOPRINE] was 0

// field: EOSINOPHIL; key: COc1ccc2c(c1)c(CC(=O)OCC(=O)O)c(C)n2C(=O)c1ccc(Cl)cc1 [ACEMETACIN] ; value = 1

EOSINOPHIL reading for c1ccc2[nH]c(-c3cscn3)nc2c1 [THIABENDAZOLE] : 0.17

Summary for this molecule, CC(C)(Oc1ccc(CCNC(=O)c2ccc(Cl)cc2)cc1)C(=O)O [BEZAFIBRATE] : EOSINOPHIL is 0.5

// sample COCc1c(C(C)C)nc(C(C)C)c(/C=C/[C@@H](O)C[C@@H](O)CC(=O)O)c1-c1ccc(F)cc1 [CERIVASTATIN] , its EOSINOPHIL was 0

The reported EOSINOPHIL of the molecule CN(C)CCCC1(c2ccc(F)cc2)OCc2cc(C#N)ccc21 (stereo not given) [CITALOPRAM] was 0.33
